Target protein (sequence): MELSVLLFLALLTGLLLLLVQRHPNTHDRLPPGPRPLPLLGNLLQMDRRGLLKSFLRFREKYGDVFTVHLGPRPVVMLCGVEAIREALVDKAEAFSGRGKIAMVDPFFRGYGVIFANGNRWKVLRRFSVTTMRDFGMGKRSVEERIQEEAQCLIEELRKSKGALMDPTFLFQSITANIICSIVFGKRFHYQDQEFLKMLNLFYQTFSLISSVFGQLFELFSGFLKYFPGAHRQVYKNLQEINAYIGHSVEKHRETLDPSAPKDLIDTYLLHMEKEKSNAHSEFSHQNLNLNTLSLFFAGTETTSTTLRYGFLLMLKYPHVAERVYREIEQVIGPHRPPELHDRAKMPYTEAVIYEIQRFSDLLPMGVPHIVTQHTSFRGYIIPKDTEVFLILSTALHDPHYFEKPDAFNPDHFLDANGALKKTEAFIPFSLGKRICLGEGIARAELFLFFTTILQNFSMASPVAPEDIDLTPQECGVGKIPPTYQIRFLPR
MEASURED_PARAMETER: IC50

So what does the record say about IC50 for "COc1cc(C(=O)N2CCC3(CC2)CC(=O)c2c(cnn2C(C)C)C3)cc(-c2ccc(C(=O)O)cc2)n1" ?
> 50 µM

###

# EXPERIMENT_NOTES: Inhibition of rat ACC2 using acetyl-CoA as substrate incubated for 20 mins in presence of [14C]O3 by liquid scintillation counting method
MEASURED_PARAMETER: IC50 (nM)
Give your result in nM as a bare value.

So what does the record say about IC50 for "COc1cc(C(=O)N2CCC3(CC2)CC(=O)c2c(cnn2C(C)C)C3)cc(-c2ccc(C(=O)O)cc2)n1" ?
8.24

###

# EXPERIMENT_NOTES: Fraction unbound in monkey liver by equilibrium dialysis method
# Assay type: ADME, tissue-based, Macaca mulatta
# ASSAY_CONTEXT: rhesus monkey
MEASURED_PARAMETER: fraction unbound
The reply should be a number, written without any unit.

So what does the record say about fraction unbound for "COc1cc(C(=O)N2CCC3(CC2)CC(=O)c2c(cnn2C(C)C)C3)cc(-c2ccc(C(=O)O)cc2)n1" ?
0.15

###

# SYSTEM_NAME: Bile salt export pump (Homo sapiens)
# Sequence (O95342 whole entry): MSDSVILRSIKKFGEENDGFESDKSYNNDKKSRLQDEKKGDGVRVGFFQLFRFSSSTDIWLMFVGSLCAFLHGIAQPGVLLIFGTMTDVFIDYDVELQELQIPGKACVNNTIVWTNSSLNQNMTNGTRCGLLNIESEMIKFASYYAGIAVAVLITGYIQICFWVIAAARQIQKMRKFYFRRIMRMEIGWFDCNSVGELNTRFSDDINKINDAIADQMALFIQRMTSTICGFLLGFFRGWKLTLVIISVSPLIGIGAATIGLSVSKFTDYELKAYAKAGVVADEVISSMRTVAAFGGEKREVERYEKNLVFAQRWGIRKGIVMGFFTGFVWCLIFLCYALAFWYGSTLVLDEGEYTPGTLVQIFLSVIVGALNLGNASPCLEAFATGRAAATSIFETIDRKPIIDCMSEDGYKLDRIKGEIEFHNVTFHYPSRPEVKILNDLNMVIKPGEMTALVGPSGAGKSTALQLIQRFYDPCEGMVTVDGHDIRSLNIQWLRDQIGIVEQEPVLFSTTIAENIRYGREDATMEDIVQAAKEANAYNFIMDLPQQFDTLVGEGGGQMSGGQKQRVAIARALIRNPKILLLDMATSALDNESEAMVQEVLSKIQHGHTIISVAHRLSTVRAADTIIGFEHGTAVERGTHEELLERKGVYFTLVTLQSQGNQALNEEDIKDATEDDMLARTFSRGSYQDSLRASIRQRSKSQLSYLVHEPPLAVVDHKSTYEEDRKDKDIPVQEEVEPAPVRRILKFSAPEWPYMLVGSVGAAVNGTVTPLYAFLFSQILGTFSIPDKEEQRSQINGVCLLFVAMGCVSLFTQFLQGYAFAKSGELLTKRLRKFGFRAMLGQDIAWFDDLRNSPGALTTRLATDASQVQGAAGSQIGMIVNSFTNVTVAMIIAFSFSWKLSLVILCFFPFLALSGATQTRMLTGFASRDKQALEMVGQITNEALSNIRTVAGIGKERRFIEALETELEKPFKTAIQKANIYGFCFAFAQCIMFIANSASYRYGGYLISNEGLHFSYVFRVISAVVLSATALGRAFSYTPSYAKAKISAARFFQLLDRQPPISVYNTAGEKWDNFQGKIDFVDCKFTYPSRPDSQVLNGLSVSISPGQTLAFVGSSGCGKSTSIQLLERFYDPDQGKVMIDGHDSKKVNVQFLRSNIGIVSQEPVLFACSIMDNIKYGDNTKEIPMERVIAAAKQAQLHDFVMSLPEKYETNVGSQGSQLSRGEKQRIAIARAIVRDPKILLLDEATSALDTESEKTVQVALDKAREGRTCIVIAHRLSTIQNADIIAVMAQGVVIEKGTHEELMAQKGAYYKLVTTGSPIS
# EXPERIMENT_NOTES: Inhibition of human BSEP expressed in baculovirus infected Hi5 insect cells in presence of taurocholic acid by LC-MS/MS analysis
MEASURED_PARAMETER: IC50
Express the reported value numerically, then name its unit.

So what does the record say about IC50 for "COc1cc(C(=O)N2CCC3(CC2)CC(=O)c2c(cnn2C(C)C)C3)cc(-c2ccc(C(=O)O)cc2)n1" ?
94 µM

###

# SYSTEM_NAME: Cytochrome P450 2D6 (Homo sapiens, UniProt P10635)
# Sequence (P10635 whole entry): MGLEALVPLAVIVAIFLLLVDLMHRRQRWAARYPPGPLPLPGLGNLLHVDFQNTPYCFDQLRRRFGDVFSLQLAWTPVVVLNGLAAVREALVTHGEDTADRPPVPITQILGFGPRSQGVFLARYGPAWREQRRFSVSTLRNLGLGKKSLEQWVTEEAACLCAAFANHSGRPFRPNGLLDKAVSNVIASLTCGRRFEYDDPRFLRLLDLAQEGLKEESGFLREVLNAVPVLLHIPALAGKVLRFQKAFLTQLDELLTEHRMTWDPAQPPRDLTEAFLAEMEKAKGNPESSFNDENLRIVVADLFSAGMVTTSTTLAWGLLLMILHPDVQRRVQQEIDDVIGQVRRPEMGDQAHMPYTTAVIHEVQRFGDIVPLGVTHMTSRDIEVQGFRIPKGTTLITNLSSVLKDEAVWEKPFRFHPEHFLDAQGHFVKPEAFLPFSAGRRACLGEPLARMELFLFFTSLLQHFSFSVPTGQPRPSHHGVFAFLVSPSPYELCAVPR
pIC50: −log10 of the molar value.
MEASURED_PARAMETER: pIC50

Form entry - test system: Cytochrome P450 2D6 (Homo sapiens, UniProt P10635); read-out: pIC50; compound: "COc1cc(C(=O)N2CCC3(CC2)CC(=O)c2c(cnn2C(C)C)C3)cc(-c2ccc(C(=O)O)cc2)n1"
< 4.30

###

# SYSTEM_NAME: OATP1B1 (Homo sapiens)
# Sequence (Q9Y6L6 whole entry): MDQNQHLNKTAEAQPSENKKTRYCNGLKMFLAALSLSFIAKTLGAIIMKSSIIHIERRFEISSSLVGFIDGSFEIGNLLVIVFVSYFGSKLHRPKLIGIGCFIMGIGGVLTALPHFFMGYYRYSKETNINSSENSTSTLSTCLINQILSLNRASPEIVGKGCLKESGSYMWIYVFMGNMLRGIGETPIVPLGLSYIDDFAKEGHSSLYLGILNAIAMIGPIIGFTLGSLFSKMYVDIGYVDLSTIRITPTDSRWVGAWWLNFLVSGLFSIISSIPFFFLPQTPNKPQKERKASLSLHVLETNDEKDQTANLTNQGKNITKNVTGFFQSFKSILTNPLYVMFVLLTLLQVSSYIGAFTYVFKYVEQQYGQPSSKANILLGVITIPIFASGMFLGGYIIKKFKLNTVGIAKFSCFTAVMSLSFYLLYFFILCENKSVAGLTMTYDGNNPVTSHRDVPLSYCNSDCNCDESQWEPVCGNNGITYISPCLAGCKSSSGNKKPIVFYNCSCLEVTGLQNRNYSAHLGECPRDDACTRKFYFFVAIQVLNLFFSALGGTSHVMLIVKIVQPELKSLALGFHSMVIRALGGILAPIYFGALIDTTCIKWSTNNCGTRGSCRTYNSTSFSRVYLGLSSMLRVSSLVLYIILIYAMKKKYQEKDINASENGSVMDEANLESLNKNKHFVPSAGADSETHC
# EXPERIMENT_NOTES: Substrate activity at human OATP1B1 stably expressed in HEK293 cells assessed as ratio of total to passive cellular uptake at 1 to 3 uM incubated for 0.5 to 4 mins by LC/MS-MS analysis
# Format: ADME, cell-based
# ASSAY_CONTEXT: HEK293 cells stably expressing human OATP1B1, dose 1-3 µM, time 0.5-4 min
The entries below come with measured uptake ratio at up to 3 µM values attached.
The reply should be a number, written without any unit.

CC(C)n1ncc2c1C(=O)CC1(CCN(C(=O)c3cc(-c4ccc(C(=O)O)cc4)nc(N(C)C)c3)CC1)C2 | 2.1

Turning now to a further compound:
Form entry - test system: OATP1B1 (Homo sapiens); read-out: uptake ratio at up to 3 µM; compound: "COc1cc(C(=O)N2CCC3(CC2)CC(=O)c2c(cnn2C(C)C)C3)cc(-c2ccc(C(=O)O)cc2)n1"
3.5

// data source = ChEMBL document CHEMBL4665761
